Molecular target: P-glycoprotein (ABCB1) (Homo sapiens)
Sequence (P08183 whole entry): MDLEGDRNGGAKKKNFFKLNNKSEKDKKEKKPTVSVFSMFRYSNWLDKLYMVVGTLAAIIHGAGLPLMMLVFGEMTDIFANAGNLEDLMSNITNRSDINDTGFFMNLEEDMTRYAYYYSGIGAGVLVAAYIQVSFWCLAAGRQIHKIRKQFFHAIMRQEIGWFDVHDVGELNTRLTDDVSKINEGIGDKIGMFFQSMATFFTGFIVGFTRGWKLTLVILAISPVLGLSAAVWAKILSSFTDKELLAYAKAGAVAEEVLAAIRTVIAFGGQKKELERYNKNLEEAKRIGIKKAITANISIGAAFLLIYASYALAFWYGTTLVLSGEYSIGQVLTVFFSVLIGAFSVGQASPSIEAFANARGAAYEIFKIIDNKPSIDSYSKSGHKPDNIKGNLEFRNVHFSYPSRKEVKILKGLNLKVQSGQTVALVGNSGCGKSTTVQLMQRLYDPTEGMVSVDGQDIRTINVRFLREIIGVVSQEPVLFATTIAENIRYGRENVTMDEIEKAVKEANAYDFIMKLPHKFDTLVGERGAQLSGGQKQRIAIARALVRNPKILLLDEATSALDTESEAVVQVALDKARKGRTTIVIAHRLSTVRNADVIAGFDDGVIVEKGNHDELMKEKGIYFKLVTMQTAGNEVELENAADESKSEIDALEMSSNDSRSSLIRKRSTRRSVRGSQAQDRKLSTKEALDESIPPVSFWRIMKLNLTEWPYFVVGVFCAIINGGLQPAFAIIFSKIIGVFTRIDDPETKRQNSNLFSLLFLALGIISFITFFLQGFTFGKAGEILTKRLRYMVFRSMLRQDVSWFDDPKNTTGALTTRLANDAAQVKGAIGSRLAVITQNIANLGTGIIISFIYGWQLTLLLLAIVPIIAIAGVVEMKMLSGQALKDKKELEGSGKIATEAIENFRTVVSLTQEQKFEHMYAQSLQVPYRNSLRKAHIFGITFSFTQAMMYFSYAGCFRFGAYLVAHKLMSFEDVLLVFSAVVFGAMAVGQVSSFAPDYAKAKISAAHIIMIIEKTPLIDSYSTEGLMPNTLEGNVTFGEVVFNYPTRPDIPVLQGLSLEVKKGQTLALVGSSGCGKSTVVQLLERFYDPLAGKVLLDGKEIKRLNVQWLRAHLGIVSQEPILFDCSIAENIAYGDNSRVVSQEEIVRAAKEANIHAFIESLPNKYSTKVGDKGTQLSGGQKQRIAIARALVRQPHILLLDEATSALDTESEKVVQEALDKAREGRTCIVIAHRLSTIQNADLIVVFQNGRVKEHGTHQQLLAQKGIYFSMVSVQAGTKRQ
Test: Inhibition of P-glycoprotein-mediated multidrug resistance in adriamycin-resistant human A2780 cells assessed as calcein accumulation at 0.25 ug/ml after 15 mins relative to verapamil
Format: cell-based
Conditions: probe calcein
I'd appreciate it if you could supply inhibition at 0.25 h, 0.25 ug/ml values for the items below.
Answers are plain numbers, in %.

Study these solved cases before continuing.
smiles_str	inhibition at 0.25 h, 0.25 ug/ml (%)
COc1cc([C@@H]2O[C@H](c3cc(OC)c4c(c3)OCO4)[C@@H](COC(C)=O)[C@@H]2CO)cc(OC)c1OC	110
CC(C)[C@@H](C)/C=C/[C@@H](C)[C@H]1CC[C@H]2[C@@]3(O)C=C[C@@]4(O)C[C@@H](O)CC[C@]4(C)[C@H]3CC[C@]12C	109
COc1cc([C@@H]2O[C@H](c3cc(OC)c4c(c3)OCO4)[C@@H](COC(C)=O)[C@@H]2COC(C)=O)cc(OC)c1O	100

Pending compound:
Q: # get_value(readout='inhibition at 0.25 h, 0.25 ug/ml', item= "COc1cc([C@H]2O[C@@H](c3cc(OC)c4c(c3)OCO4)[C@@H](COC(C)=O)[C@@H]2CO)cc2c1OCO2" )
Result: 86

Recorded values, source ChEMBL document CHEMBL1158832.
